The measured values listed here are drawn from the supplement of paper PMC6555819.

tested on: LXRb homodimer (NR concentration 270 nM); assay: PBM binding z-score (relative to random genomic background probes); higher = stronger binding; sequences stand for … in GC…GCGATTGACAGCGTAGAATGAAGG
Please enter Y where PBM binding z-score is greater than or equal to -0.04, and N where it is lower.

- Sequence record: "TCTTGTAGATCAGCAGGTTGAGAAAGCTGGCCAA"
  Class: "N"
- Sequence record: "TCATATAGGTAAACAGGTGAAATTCCGTAAGTTA"
  Class: "N"
- Sequence record: "AGAATGAGGGTATTAAGATCAGGGAATTGCGGTC"
  Class: "Y"
- Sequence record: "GGAACGGGGGCAAAGTTGATAGCATCTGTCGACG"
  Class: "Y"
- Sequence record: "CGTCCAAGGTCAGAGAGGCCAGTGAATGCCGAGT"
  Class: "N"
- Sequence record: "TGTACAGGGTCAAAGGCCAGAGTACGAATGTCGA"
  Class: "Y"
- Sequence record: "TAGCCTAGGTCAGATAGGGCCAGTATACGCTATA"
  Class: "N"
- Sequence record: "GGAACGAGGGCATTCGAGTTGATAGGATGGCGAT"
  Class: "N"
- Sequence record: "GCTAACAGGCCATTTGGGTCACTCAATGACGGGC"
  Class: "N"
- Sequence record: "AGAATGAGGGCACGCTGAGTTGATAGCAGAGTAG"
  Class: "N"
- Sequence record: "TCTGCTATGTCAGTTGGTCAGCTAACGAGCTGCC"
  Class: "N"
- Sequence record: "CGTCGAAGGTCAAGGTCAGTGAAAGAGACTCGAA"
  Class: "Y"
